# TEST_METHOD_NOTES: in vitro
# TEST_SETTINGS: human, hela cells, % viability
MEASUREMENT_KIND: viability at 28.5 h, 10 µM (%)

[
  {
    "COMPOUND": "CC1=NC(O)(C(F)(F)F)C(c2ccccc2)S1 (stereo not drawn)",
    "DATA_VALUE": 87.8
  },
  {
    "COMPOUND": "NC(=O)c1nc(-c2ccco2)nc2c1[nH]c(=O)n2-c1ccc(Cl)cc1",
    "DATA_VALUE": 91.2
  },
  {
    "COMPOUND": "COc1ccc(CCN(Cc2cccnc2)CC(O)COc2cccc3c2CCCC3)cc1 (stereo not drawn) [CBK024545T]",
    "DATA_VALUE": 92
  }
]

* * *

# TEST_METHOD_NOTES: in vitro
# TEST_SETTINGS: human, hela cells, % viability

[
  {
    "MOLECULE": "CN1CC2(CCCN(Cc3nnc(-c4cccnc4)o3)C2)OC1=O (stereo not shown)",
    "viability at 28.5 h, 10 µM (%)": 110
  },
  {
    "MOLECULE": "N=C(N)NC(=N)NCCc1c[nH]c2ccccc12 [CBK267706G]",
    "viability at 28.5 h, 10 µM (%)": 89.3
  },
  {
    "MOLECULE": "O=C(c1ccccc1)c1ccc(OCCO)cc1",
    "viability at 28.5 h, 10 µM (%)": 94
  },
  {
    "MOLECULE": "CCN1C(=O)COC[C@@H]1[C@H](O)c1ccc(NC(=O)c2ccco2)cc1",
    "viability at 28.5 h, 10 µM (%)": 85.3
  },
  {
    "MOLECULE": "COc1ccc(-c2noc(CN(C(=O)Cc3ccc(C)cc3)C(C)C)n2)cc1",
    "viability at 28.5 h, 10 µM (%)": 89.6
  },
  {
    "MOLECULE": "CC(NCC(=O)NC1(C#N)CCCCC1)C(C)n1cccn1 (stereo not shown)",
    "viability at 28.5 h, 10 µM (%)": 91.4
  },
  {
    "MOLECULE": "Cc1ccc(NC(=O)CSc2nnc(N)[nH]2)cc1",
    "viability at 28.5 h, 10 µM (%)": 110
  },
  {
    "MOLECULE": "COc1ccc(NC(=O)C2CC(=O)NC3=C2C(=O)CC(c2ccco2)C3)cc1 (stereo not shown)",
    "viability at 28.5 h, 10 µM (%)": 90.6
  },
  {
    "MOLECULE": "Cc1nc2cc(NC(=O)Cc3c(C)nc4ccccc4c3C)ccc2o1",
    "viability at 28.5 h, 10 µM (%)": 110
  },
  {
    "MOLECULE": "O=C(Cc1ccccc1)Nc1ccc2[nH]ncc2c1",
    "viability at 28.5 h, 10 µM (%)": 104
  },
  {
    "MOLECULE": "CCC(=O)N1CCCC1c1nc(C)c2c(n1)N(Cc1ccccc1OC)CCC2 (stereo not shown)",
    "viability at 28.5 h, 10 µM (%)": 91.9
  },
  {
    "MOLECULE": "CNC(=O)C1(Cc2ccc(-c3ccccc3)cc2)CCN(C(=O)CCc2ccccc2)CC1",
    "viability at 28.5 h, 10 µM (%)": 91.8
  },
  {
    "MOLECULE": "O=C(CNS(=O)(=O)c1ccc(Oc2ccccc2)cc1)Nc1ccc(F)cc1",
    "viability at 28.5 h, 10 µM (%)": 104
  }
]
